Molecular target: HLA-A*0201 (human)
Test: competition with 125I-labelled standard peptide 941.01 for purified HLA-A*0201, gel filtration
measurement.kind: binding affinity ratio (IC50 of standard peptide / IC50 of test peptide)

Some solved cases for reference:
{"binder": "RAASLSLGFL (modifications not checked) [… (PAP, position 10)]", "value.observed": 0.0002}
{"binder": "SIEPEEFLT (modifications not checked) [… (PSA, position 155)]", "value.observed": 0.0001}
{"binder": "SIEGNYTLRV (modifications not checked) [… (PSM, position 455)]", "value.observed": 0.0001}

stdin: // lookup binding affinity ratio (IC50 of standard peptide / IC50 of test peptide) for RLSEPAKI (modifications not checked) [RLSEPAKI (Kallikrein, position 125)]
stdout: -0.0001
